- measured on: Metabotropic glutamate receptor 4 (Homo sapiens) (UniProt Q14833)
- assay name: human mGluR4 response to M1 antagonist hits, M1 allosteric modulator project, cell-based, antagonist mode, secondary assay 1 (AID 678);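 also: raw unnormalized fluorescence span taken in the window right after glutamate addition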
- stated conditions: CHO-mGluR4 calcium flux, Fluo-4 fluorescence, glutamate EC80; at 10 µM; active compounds read low
The whole screen tested about 1,700 compounds, of which about 15 (0.9%) were called active. The list is a sample of the results.
endpoint label: fluorescence response (max-min)
Format: numeric value only, no unit, no commentary.

**Q:** Please give measured fluorescence response (max-min) of the following entry: CN(C)[C@@H]1C(=O)C(C(N)=O)=C(O)[C@@]2(O)C(=O)C3=C(O)c4c(O)ccc(Cl)c4[C@@H](O)[C@H]3C[C@@H]12
**A:** 238

**Q:** Please give measured fluorescence response (max-min) of the following entry: CCCCCOC(=O)NCCOC(=O)Nc1ccc(C(=O)OCC)cc1
**A:** 170

meta.source: PubChem BioAssay AID678
